Origin of the recorded values: ChEMBL document CHEMBL2321860

Molecular target: Adenosine receptor A1 (Homo sapiens) (UniProt P30542)
Sequence (whole entry): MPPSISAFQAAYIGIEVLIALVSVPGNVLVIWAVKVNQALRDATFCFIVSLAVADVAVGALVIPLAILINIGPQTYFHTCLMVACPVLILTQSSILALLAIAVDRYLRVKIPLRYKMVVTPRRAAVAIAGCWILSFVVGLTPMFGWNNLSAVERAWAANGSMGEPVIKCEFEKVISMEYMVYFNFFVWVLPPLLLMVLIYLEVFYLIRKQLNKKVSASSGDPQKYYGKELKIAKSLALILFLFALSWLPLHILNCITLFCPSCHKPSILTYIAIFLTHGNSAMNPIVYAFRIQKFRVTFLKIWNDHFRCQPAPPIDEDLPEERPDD
Test: Displacement of [3H]DPCPX from human A1 adenosine receptor expressed in CHO cells at 1 uM after 120 mins by scintillation counting analysis
Format: cell-based
Assay endpoint: inhibition (%)

COc1ccc(-n2cc3nc(C)nc(NC(=O)Nc4ccccc4)c3n2)cc1 :: 5
COc1ccc(-n2cc3nc(C)nc(NC(=O)c4ccco4)c3n2)cc1 :: 6
O=C(Cc1ccccc1)Nc1nc(-c2ccccc2)nc2cn(-c3ccccc3)nc12 :: 5

P = COc1ccc(-n2cc3nc(C)nc(N)c3n2)cc1
Q = O=C(Nc1nc(-c2ccccc2)nc2cn(-c3ccccc3)nc12)c1ccccc1
R = COc1ccc(C(=O)Nc2nc(-c3ccccc3)nc3cn(-c4ccccc4)nc23)cc1
input: Kindly order the items shown according to inhibition, from the highest value down. Write out the labels following the order that was asked for.
output: P, Q, R
